Assay system Sodium-dependent dopamine transporter (Homo sapiens, UniProt Q01959); read-out recorded as AC50. Also: assay procedure not described here.

The examples below pair each entry with its known result.
INSERT INTO results (molecule, reported_metric, assay_result) VALUES
  ('C1CCC(C(CC2CCCCN2)C2CCCCC2)CC1 (stereo unspecified)', 'AC50', '7.05 µM'),
  ('CCOC(=O)[C@H](CCc1ccccc1)N[C@@H](C)C(=O)N1[C@H](C(=O)O)C[C@@H]2CCC[C@@H]21', 'AC50', '> 10 µM'),
  ('O=[N+]([O-])O[C@@H]1CO[C@H]2[C@@H]1OC[C@@H]2O [ISOSORBIDE MONONITRATE]', 'AC50', '> 10 µM'),
  ('C#C[C@]1(O)CC[C@H]2[C@@H]3[C@H](C)CC4=C(CCC(=O)C4)[C@H]3CC[C@@]21C', 'AC50', '27 µM'),
  ('CC[C@H]1[C@@H](O)[C@@H]2[C@H](CC[C@]3(C)[C@@H]([C@H](C)CCC(=O)O)CC[C@@H]23)[C@@]2(C)CC[C@@H](O)C[C@@H]12', 'AC50', '> 30 µM');

Readout AC50 for CC(C(=O)O)c1ccc(N2Cc3ccccc3C2=O)cc1 (stereo unspecified) , test system Sodium-dependent dopamine transporter (Homo sapiens, UniProt Q01959), was > 30 µM

Readout AC50 for Cc1ccc(-n2nccn2)c(C(=O)N2CCN(c3nc4cc(Cl)ccc4o3)CC[C@H]2C)c1 , test system Sodium-dependent dopamine transporter (Homo sapiens, UniProt Q01959), was > 10 µM

Readout AC50 for CNC(=O)c1ccccc1Sc1ccc2c(/C=C/c3ccccn3)n[nH]c2c1 , test system Sodium-dependent dopamine transporter (Homo sapiens, UniProt Q01959), was 0.07 µM

Readout AC50 for CN(C)CC/C=C1\c2ccccc2CSc2ccccc21 [DOTHIEPIN] , test system Sodium-dependent dopamine transporter (Homo sapiens, UniProt Q01959), was 20 µM

Readout AC50 for CN1CCC(=C2c3ccccc3CCc3sccc32)CC1 , test system Sodium-dependent dopamine transporter (Homo sapiens, UniProt Q01959), was 13.4 µM

* * *

target: Sodium-dependent serotonin transporter (Homo sapiens); also: assay procedure not described here
Sequence (P31645 whole entry): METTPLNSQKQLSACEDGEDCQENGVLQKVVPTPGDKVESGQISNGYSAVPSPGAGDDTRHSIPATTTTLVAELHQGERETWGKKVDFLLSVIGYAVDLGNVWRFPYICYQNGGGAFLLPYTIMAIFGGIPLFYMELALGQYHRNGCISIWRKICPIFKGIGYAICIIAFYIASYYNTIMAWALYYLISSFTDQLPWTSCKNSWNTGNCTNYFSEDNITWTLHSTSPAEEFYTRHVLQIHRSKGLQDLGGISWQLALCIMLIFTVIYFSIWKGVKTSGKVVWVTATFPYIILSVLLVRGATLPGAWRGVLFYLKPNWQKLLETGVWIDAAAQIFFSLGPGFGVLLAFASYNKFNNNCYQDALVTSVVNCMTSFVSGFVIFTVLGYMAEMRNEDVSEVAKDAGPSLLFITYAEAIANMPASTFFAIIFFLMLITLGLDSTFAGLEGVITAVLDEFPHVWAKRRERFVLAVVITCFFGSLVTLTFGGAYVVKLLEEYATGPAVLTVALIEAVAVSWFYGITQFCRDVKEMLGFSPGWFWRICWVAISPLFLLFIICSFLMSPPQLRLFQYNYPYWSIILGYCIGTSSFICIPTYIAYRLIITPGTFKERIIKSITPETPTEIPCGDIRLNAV
reported.metric: AC50

The examples below pair each entry with its known result.
INSERT INTO results (molecule, assay_result) VALUES
  ('COc1cc2nc(N(C)CCCNC(=O)C3CCCO3)nc(N)c2cc1OC (stereo not drawn)', '> 30 µM'),
  ('CC(Oc1c(Cl)cccc1Cl)C1=NCCN1 (stereo not drawn)', '11 µM'),
  ('CCCCCCOc1ccccc1C(N)=O [EXALAMIDE]', '> 30 µM'),
  ('COc1ccc(CC(C)(C)NC[C@H](O)c2cc(O)cc3c2OCC(=O)N3)cc1', '0.0608 µM'),
  ('CCCC(=O)O[C@]1(C(=O)CO)CC[C@H]2[C@@H]3CCC4=CC(=O)CC[C@]4(C)[C@H]3[C@@H](O)C[C@@]21C [HYDROCORTISONE BUTYRATE]', '> 10 µM');

Form: molecule = CCN1CCN(C(=O)N[C@@H](C(=O)N[C@@H]2C(=O)N3C(C(=O)O)=C(CSc4nnnn4C)CS[C@H]23)c2ccc(O)cc2)C(=O)C1=O ; AC50 = > 30 µM

Form: molecule = C[C@]1(O)CC[C@H]2[C@@H]3CCC4=CC(=O)CC[C@]4(C)[C@@]3(F)[C@@H](O)C[C@@]21C ; AC50 = > 10 µM

Form: molecule = OC(CNCC(O)C1CCc2cc(F)ccc2O1)C1CCc2cc(F)ccc2O1 (stereo not drawn) ; AC50 = 0.75 µM

* * *

Assay system Beta-2 adrenergic receptor (Homo sapiens); read-out recorded as AC50. Also: assay procedure not described here.

The examples below pair each entry with its known result.
INSERT INTO measurements (compound, reported_metric, assay_result) VALUES
  ('CN1[C@@H]2CC[C@H]1C[C@@H](OC(c1ccccc1)c1ccccc1)C2', 'AC50', '> 30 µM'),
  ('Cn1nnc2c(C(N)=O)ncn2c1=O [TEMOZOLOMIDE]', 'AC50', '> 10 µM');

Form: compound = N#Cc1ccc([C@H]2CCc3cncn32)c(F)c1 ; AC50 = > 10 µM

Form: compound = CCCC(C)C1(CC)C(=O)NC(=O)NC1=O (stereo not given) ; AC50 = > 10 µM

Form: compound = CC[C@@H]1C(=O)OC[C@@H]1Cc1cncn1C ; AC50 = > 10 µM

* * *

Attribute: AC50
target: Prostaglandin G/H synthase 1 (Rattus norvegicus); assay type: functional; also: assay procedure not described here
Sequence (Q63921 whole entry): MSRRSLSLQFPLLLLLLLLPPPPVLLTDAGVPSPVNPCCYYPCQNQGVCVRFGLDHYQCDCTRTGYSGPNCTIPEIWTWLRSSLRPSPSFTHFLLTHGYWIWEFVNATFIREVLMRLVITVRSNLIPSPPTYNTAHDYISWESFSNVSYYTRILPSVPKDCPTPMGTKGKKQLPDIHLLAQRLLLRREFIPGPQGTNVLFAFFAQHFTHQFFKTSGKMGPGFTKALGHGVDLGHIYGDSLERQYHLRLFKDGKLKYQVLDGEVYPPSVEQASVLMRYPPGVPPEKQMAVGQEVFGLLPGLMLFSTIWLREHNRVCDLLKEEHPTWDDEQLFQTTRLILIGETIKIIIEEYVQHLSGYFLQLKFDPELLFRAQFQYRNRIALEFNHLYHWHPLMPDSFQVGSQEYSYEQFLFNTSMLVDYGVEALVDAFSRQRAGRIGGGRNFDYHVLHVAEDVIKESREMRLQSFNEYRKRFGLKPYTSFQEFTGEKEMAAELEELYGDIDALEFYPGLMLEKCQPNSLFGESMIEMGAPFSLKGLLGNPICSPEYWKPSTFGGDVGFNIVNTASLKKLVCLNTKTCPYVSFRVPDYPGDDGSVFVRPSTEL

INSERT INTO assay_data (molecule, assay_result) VALUES
  ('CC(=O)O[C@H]1CC[C@@]2(C)C(=CC[C@@H]3[C@@H]2CC[C@]2(C)C(c4cccnc4)=CC[C@@H]32)C1 [ABIRATERONE ACETATE]', '> 30 µM'),
  ('Cc1nc([N+](=O)[O-])cn1-c1ccc([N+](=O)[O-])cc1', '> 30 µM'),
  ('C=CCc1ccccc1OCC(O)CNC(C)C (stereo not drawn)', '> 30 µM'),
  ('CC1(C)CCC(CN2CCN(c3ccc(C(=O)NS(=O)(=O)c4ccc(NCC5CCOCC5)c([N+](=O)[O-])c4)c(Oc4cnc5[nH]ccc5c4)c3)CC2)=C(c2ccc(Cl)cc2)C1', '> 30 µM'),
  ('NC(=O)OCC(COC(N)=O)c1ccccc1 [FELBAMATE]', '> 10 µM');

Form: molecule = Cc1cccc(C(C)c2cnc[nH]2)c1C (stereo not drawn) ; AC50 = > 30 µM

Form: molecule = CC(C)=CCC/C(C)=C/C=C/C(C)=C/C=C/C(C)=C/C=C/C=C(C)/C=C/C=C(C)/C=C/C=C(\C)CCC=C(C)C ; AC50 = > 30 µM

Form: molecule = CCOc1ccc(Cc2cc([C@@H]3O[C@H](CO)[C@@H](O)[C@H](O)[C@H]3O)ccc2Cl)cc1 ; AC50 = > 30 µM

* * *

Attribute: AC50
target: Alpha-2C adrenergic receptor (Homo sapiens); format: functional; also: assay procedure not described here
Sequence (P18825 whole entry): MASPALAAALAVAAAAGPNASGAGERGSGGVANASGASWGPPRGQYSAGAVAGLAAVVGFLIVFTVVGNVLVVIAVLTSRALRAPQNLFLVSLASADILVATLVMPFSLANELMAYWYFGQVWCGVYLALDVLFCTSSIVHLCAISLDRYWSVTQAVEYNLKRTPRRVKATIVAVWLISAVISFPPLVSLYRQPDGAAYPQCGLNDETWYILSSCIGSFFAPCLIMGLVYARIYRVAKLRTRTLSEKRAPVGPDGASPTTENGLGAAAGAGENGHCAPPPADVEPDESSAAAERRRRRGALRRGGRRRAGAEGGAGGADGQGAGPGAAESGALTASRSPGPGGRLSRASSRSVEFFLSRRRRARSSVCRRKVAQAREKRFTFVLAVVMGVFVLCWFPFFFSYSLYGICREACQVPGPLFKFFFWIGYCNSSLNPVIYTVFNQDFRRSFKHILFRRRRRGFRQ

The examples below pair each entry with its known result.
INSERT INTO assay_data (compound, reported_metric, assay_result) VALUES
  ('CS(=O)(=O)c1ccc(C2=C(c3ccccc3)C(=O)OC2)cc1 [ROFECOXIB]', 'AC50', '> 10 µM'),
  ('Nc1nc(Cl)nc2c1ncn2[C@H]1C[C@H](O)[C@@H](CO)O1 [CLADRIBINE]', 'AC50', '> 30 µM'),
  ('CC(CC(c1ccccc1)c1ccccc1)NC(C)(C)C (centres undefined) [TERODILINE]', 'AC50', '> 30 µM'),
  ('NC(=O)CN1CC(O)CC1=O (centres undefined) [OXIRACETAM]', 'AC50', '> 30 µM'),
  ('CC(C(=O)O)c1ccc(N2Cc3ccccc3C2=O)cc1 (centres undefined) [INDOPROFEN]', 'AC50', '> 30 µM');

Form: compound = C[C@H](N)[C@H](O)c1cccc(O)c1 [METARAMINOL] ; AC50 = > 10 µM

Form: compound = COc1cc2c(N)nc(N3CCN(C(=O)OCC(C)(C)O)CC3)nc2c(OC)c1OC [TRIMAZOSIN] ; AC50 = 13 µM

Form: compound = O=C1C(O)=C([C@H]2CC[C@H](c3ccc(Cl)cc3)CC2)C(=O)c2ccccc21 [ATOVAQUONE] ; AC50 = > 30 µM

Form: compound = O=C(O)C[C@H](O)C[C@H](O)/C=C/c1c(C2CC2)nc2ccccc2c1-c1ccc(F)cc1 [PITAVASTATIN] ; AC50 = > 30 µM

Form: compound = Cc1ccc(-n2nccn2)c(C(=O)N2CCN(c3nc4cc(Cl)ccc4o3)CC[C@H]2C)c1 [SUVOREXANT] ; AC50 = > 30 µM

Form: compound = COc1cccc(C2(O)CCCCC2CN(C)C)c1 (centres undefined) [TRAMADOL] ; AC50 = > 10 µM

* * *

Assay system Delta-type opioid receptor (Homo sapiens, UniProt P41143); read-out recorded as AC50. Also: assay procedure not described here.

The examples below pair each entry with its known result.
INSERT INTO results (compound, tested_on, assay_result) VALUES
  ('Clc1ccc(C(c2ccccc2Cl)C(Cl)Cl)cc1 (stereo unspecified)', 'Delta-type opioid receptor (Homo sapiens, UniProt P41143)', '> 30 µM'),
  ('NS(=O)(=O)Cc1noc2ccccc12 [ZONISAMIDE]', 'Delta-type opioid receptor (Homo sapiens, UniProt P41143)', '> 30 µM'),
  ('NC(=O)CN1CC(O)CC1=O (stereo unspecified)', 'Delta-type opioid receptor (Homo sapiens, UniProt P41143)', '> 30 µM'),
  ('COc1ccc(-c2ccc3cc(C(=O)O)ccc3c2)cc1C12CC3CC(CC(C3)C1)C2', 'Delta-type opioid receptor (Homo sapiens, UniProt P41143)', '> 30 µM'),
  ('CCCN1C[C@H](CSC)C[C@@H]2c3cccc4[nH]cc(c34)C[C@H]21 [PERGOLIDE]', 'Delta-type opioid receptor (Homo sapiens, UniProt P41143)', '> 30 µM');

Readout AC50 for CCOc1ccccc1OCC1CNCCO1 (stereo unspecified) , test system Delta-type opioid receptor (Homo sapiens, UniProt P41143), was > 10 µM

Readout AC50 for C[C@H](N)[C@H](O)c1cccc(O)c1 , test system Delta-type opioid receptor (Homo sapiens, UniProt P41143), was > 30 µM

Readout AC50 for Cc1cc(C(C)(C)C)c(O)c(C)c1CC1=NCCN1 , test system Delta-type opioid receptor (Homo sapiens, UniProt P41143), was > 30 µM

Readout AC50 for N#Cc1ccc([C@H]2CCc3cncn32)c(F)c1 , test system Delta-type opioid receptor (Homo sapiens, UniProt P41143), was > 10 µM

Readout AC50 for NCC(=O)CCC(=O)O , test system Delta-type opioid receptor (Homo sapiens, UniProt P41143), was > 30 µM

Readout AC50 for CC[C@@H](C(N)=O)N1CCCC1=O , test system Delta-type opioid receptor (Homo sapiens, UniProt P41143), was > 30 µM
